Each recorded value in this set is attributed to patent US20110294738A1.

Biological target: PTHR1 receptor
Sequence (P25961 whole entry): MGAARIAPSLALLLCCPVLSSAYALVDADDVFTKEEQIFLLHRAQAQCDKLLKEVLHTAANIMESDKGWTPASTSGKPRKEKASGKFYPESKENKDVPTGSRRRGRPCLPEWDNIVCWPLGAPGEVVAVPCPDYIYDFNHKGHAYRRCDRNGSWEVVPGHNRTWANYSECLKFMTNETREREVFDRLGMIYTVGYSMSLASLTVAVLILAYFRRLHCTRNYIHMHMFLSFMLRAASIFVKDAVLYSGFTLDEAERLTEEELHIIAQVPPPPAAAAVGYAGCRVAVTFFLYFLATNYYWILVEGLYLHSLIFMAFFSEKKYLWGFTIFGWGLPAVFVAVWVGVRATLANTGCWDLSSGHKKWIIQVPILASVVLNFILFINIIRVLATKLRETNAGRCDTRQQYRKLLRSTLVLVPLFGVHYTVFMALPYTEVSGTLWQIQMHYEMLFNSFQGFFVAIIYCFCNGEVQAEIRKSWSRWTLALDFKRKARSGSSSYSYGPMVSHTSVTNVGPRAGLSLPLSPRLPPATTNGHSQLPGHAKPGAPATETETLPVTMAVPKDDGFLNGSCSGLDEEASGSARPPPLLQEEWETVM
* marks the point of attachment. Palmitoyl = CCCCCCCCCCCCCCCC(=O)*

{"Binder": "Palmitoyl-TNAGRSDTRQQYRK-NH2 (SMILES CCCCCCCCCCCCCCCC(=O)N[C@H](C(=O)N[C@@H](CC(N)=O)C(=O)N[C@@H](C)C(=O)NCC(=O)N[C@@H](CCCNC(=N)N)C(=O)N[C@@H](CO)C(=O)N[C@@H](CC(=O)O)C(=O)N[C@H](C(=O)N[C@@H](CCCNC(=N)N)C(=O)N[C@@H](CCC(N)=O)C(=O)N[C@@H](CCC(N)=O)C(=O)N[C@@H](Cc1ccc(O)cc1)C(=O)N[C@@H](CCCNC(=N)N)C(=O)N[C@@H](CCCCN)C(N)=O)[C@@H](C)O)[C@@H](C)O) [Compound 69]", "Fold Shift of EC50 [fold]": 5.2}
{"Binder": "Palmitoyl-TNAGASDTRQQYRKLL-NH2 (SMILES CCCCCCCCCCCCCCCC(=O)N[C@H](C(=O)N[C@@H](CC(N)=O)C(=O)N[C@@H](C)C(=O)NCC(=O)N[C@@H](C)C(=O)N[C@@H](CO)C(=O)N[C@@H](CC(=O)O)C(=O)N[C@H](C(=O)N[C@@H](CCCNC(=N)N)C(=O)N[C@@H](CCC(N)=O)C(=O)N[C@@H](CCC(N)=O)C(=O)N[C@@H](Cc1ccc(O)cc1)C(=O)N[C@@H](CCCNC(=N)N)C(=O)N[C@@H](CCCCN)C(=O)N[C@@H](CC(C)C)C(=O)N[C@@H](CC(C)C)C(N)=O)[C@@H](C)O)[C@@H](C)O) [Compound 76]", "Fold Shift of EC50 [fold]": 16.9}
